Assay: Levels of homovanillic acid (HVA) in rat brain 2 hour after an intraperitoneal injection dose
Type: ADME, tissue-based
Conditions: in vivo, ip
Below, each of the molecules is paired with its reported HVA level value.
The response must be a number in % with no trailing unit.

Reference set, count: 4
Molecule | Uom | HVA level
CCC(C)[C@]1(O)CCN2C[C@@H](c3ccc(Cl)cc3Cl)CC[C@@H]2C1.Cl (stereo not given in full) | % | 467
C[C@]1(O)CCN2C[C@@H](c3ccc(Cl)cc3Cl)CC[C@@H]2C1 | % | 157
CC(C)(C)[C@]1(O)CCN2C[C@@H](c3ccc(Cl)cc3Cl)CC[C@@H]2C1.Cl (stereo in doubt; (-)-5e) | % | 350
CC(C)(C)[C@]1(O)CCN2C[C@@H](c3ccc(Cl)c(Cl)c3)CC[C@@H]2C1.Cl | % | 190

Continue with the next molecule.
input: Specify measured HVA level for CCCC[C@]1(O)CCN2C[C@@H](c3ccc(Cl)cc3Cl)CC[C@@H]2C1.Cl .
output: 150
